Target: Adenosine receptor A2a (Rattus norvegicus)
Sequence (P30543 whole entry): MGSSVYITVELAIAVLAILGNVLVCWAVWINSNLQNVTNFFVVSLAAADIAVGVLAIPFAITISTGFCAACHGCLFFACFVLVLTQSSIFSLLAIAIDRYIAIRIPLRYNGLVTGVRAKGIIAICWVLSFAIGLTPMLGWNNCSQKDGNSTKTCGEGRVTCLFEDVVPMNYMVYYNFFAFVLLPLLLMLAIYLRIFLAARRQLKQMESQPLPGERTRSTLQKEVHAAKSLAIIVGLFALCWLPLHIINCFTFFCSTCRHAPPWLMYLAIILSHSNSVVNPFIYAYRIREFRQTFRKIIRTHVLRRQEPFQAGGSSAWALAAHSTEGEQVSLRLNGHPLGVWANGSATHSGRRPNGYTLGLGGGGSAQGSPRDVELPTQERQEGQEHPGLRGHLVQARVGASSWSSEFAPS
pKi: −log10 of the molar value.
Parameter threshold = 8. Response is y when pKi meets or exceeds it, else n.

compound	test-target	class-name
CC(O)(C#Cc1cn2nc(-c3ccco3)nc2c(N)n1)Cc1ccncc1 (stereo not given)	Adenosine receptor A2a (Rattus norvegicus)	y
Nc1nc(C#CC(O)C2(O)CCCC2)cn2nc(-c3ccco3)nc12 (stereo not given)	Adenosine receptor A2a (Rattus norvegicus)	n
CC(O)(C#Cc1cn2nc(-c3ccco3)nc2c(N)n1)c1ccc([N+]2=CC=NC2)cc1 (stereo not given)	Adenosine receptor A2a (Rattus norvegicus)	n

====

Target: Adenosine receptor A2a (Rattus norvegicus)
pKi: −log10 of the molar value.
parameter-measured: pKi

compound	parameter-measured	relational-operator	assay-value
CC(O)(C#Cc1cn2nc(-c3ccco3)nc2c(N)n1)c1ccccc1 (stereo not drawn)	pKi	=	7.92
Nc1nc(C#CCOc2ccc(F)c(Cl)c2)cn2nc(-c3ccco3)nc12	pKi	=	6.51
Nc1nc(C#Cc2ccc(F)cc2F)cn2nc(-c3ccco3)nc12	pKi	<	6.00

====

We begin with a simple list: items and their reported Ki.
Target: UniProt:P25099
Sequence (P25099 whole entry): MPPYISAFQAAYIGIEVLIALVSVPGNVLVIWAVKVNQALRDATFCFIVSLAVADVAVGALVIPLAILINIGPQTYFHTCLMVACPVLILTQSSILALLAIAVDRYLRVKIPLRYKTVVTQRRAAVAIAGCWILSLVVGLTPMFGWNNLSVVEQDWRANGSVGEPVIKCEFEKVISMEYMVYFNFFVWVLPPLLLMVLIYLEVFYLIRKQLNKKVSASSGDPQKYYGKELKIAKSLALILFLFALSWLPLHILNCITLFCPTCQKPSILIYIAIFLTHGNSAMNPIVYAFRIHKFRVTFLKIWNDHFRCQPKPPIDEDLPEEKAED
parameter-measured: Ki

molecule	parameter-measured	assay-value
Nc1nc(C#CCOc2cccnc2)cn2nc(-c3ccco3)nc12	Ki	110 nM
Nc1nc(C#CC(O)C2(O)CCC2)cn2nc(-c3ccco3)nc12 (centres undefined)	Ki	2.5 nM
CC(C)CCC(C)(O)C#Cc1cn2nc(-c3ccco3)nc2c(N)n1 (centres undefined)	Ki	24 nM
CC(O)(C#Cc1cn2nc(-c3ccco3)nc2c(N)n1)Cc1ccncc1 (centres undefined)	Ki	100 nM
Nc1nc(C#CC(O)c2csc3ccccc23)cn2nc(-c3ccco3)nc12 (centres undefined)	Ki	73 nM
Cn1nc(OCC#Cc2cn3nc(-c4ccco4)nc3c(N)n2)cc1C(F)(F)F	Ki	1800 nM
CC(O)(C#Cc1cn2nc(-c3ccco3)nc2c(N)n1)c1ccc([N+]2=CC=NC2)cc1 (centres undefined)	Ki	110 nM
CCC(O)(C#Cc1cn2nc(-c3ccco3)nc2c(N)n1)CC	Ki	33 nM
CC(O)(C#Cc1cn2nc(-c3ccco3)nc2c(N)n1)c1ccccc1 (centres undefined)	Ki	41 nM
